The reported measurements were obtained from patent EP0216127B1.

Consider the following compounds; for each one, report its pIC50.
# SYSTEM NAME: HMG-CoA-Reduktase (Mus musculus, UniProt Q01237)
# Construct: dann wurde die HMG-CoA-Reduktaseaktivität der Zellen, modifiziert nach Chang et al; endogenous in cells
# Sequence (Q01237 1-887): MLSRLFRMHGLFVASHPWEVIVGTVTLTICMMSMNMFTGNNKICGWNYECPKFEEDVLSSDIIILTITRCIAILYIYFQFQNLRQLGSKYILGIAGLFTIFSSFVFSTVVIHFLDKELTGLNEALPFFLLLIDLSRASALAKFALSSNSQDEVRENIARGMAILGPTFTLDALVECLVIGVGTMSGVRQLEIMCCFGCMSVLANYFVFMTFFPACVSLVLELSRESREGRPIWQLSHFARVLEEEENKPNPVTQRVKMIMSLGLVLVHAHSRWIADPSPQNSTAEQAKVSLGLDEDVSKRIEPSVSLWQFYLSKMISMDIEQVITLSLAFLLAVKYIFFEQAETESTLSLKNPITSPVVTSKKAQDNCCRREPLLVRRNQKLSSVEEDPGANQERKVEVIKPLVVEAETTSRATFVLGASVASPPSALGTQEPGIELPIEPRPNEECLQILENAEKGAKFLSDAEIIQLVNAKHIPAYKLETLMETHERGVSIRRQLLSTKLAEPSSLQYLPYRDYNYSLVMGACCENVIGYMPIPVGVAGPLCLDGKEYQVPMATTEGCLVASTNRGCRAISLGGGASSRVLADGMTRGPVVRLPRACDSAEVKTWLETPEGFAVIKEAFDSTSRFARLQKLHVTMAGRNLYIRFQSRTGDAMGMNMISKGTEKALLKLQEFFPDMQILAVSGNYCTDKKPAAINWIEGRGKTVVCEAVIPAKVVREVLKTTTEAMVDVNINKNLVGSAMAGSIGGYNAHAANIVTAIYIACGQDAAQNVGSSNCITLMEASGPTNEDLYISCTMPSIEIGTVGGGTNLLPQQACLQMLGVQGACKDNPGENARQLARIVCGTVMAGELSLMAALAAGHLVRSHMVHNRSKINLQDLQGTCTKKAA
# METHOD: Suppression or inhibition of HMG-CoA reductase in cell cultures of fibroblasts (L cells)
# ASSAY CONTEXT: 3 h incubation of confluent L-Zellen in lipoprotein-free medium; molar concentration for 50% inhibition of HMG-CoA reductase activity
# pIC50 is unitless: minus log10 of the molar concentration; print number only

**Query** # lookup: pIC50 of COc1ccc(C(c2ccc(F)cc2)c2cc(C)cc(C)c2OC[C@@H]2C[C@@H](O)CC(=O)O2)cc1 (stereo partly drawn)
**Result** 4.40

**Query** # lookup: pIC50 of "Cc1cc(C)c(OC[C@@H]2C[C@@H](O)CC(=O)O2)c(C(c2ccc(F)cc2)c2ccc(F)cc2)c1"
**Result** 4.30

**Query** # lookup: pIC50 of "Cc1cc(Cl)cc(CCCOc2ccc(Cl)cc2)c1OC[C@@H]1C[C@@H](O)CC(=O)O1"
**Result** 4.85

**Query** # lookup: pIC50 of "Cc1cc(Cl)cc(CC2CCCCC2)c1OC[C@@H]1C[C@@H](O)CC(=O)O1"
**Result** 4.82

**Query** # lookup: pIC50 of "Cc1cc(Cl)cc(CCCOc2ccc(F)cc2)c1OC[C@@H]1C[C@@H](O)CC(=O)O1"
**Result** 5.00

**Query** # lookup: pIC50 of "C=CCc1cc(Cl)cc(CCCOc2ccc(F)cc2)c1OC[C@@H]1C[C@@H](O)CC(=O)O1"
**Result** 4.00
